STATED CONDITIONS: 358.15 K; 101.33 kPa; Liquid; Vibrating tube method
OBSERVED PROPERTY: mass density (kg/m3)

CCCCCCCC/C=C\CCCCCCCC(=O)[O-].CCCCCC[N+](CCCCCC)(CCCCCC)CCCCCC [tetrahexylammonium oleate] = 851
CCCCCCCC/C=C\CCCCCCCC(=O)[O-].CCCCCCCC[N+](CCCCCCCC)(CCCCCCCC)CCCCCCCC [tetraoctylammonium oleate] = 839.2
CCCCCCCC/C=C\CCCCCCCC(=O)[O-].CCCCCCCC[N+](C)(CCCCCCCC)CCCCCCCC [methyltrioctylammonium oleate] = 852
CCCCC(CC)CCC(=O)[O-].CCCCCCCC[N+](C)(CCCCCCCC)CCCCCCCC [methyltrioctylammonium 4-ethyloctanoate] = 853.9

====

STATED CONDITIONS: 343.15 K; 101.33 kPa; Liquid; Concentric cylinders viscometry
OBSERVED PROPERTY: viscosity (mPa·s)

CCCCC(CC)CCC(=O)[O-].CCCCCCCC[N+](C)(CCCCCCCC)CCCCCCCC [methyltrioctylammonium 4-ethyloctanoate] = 189.2
CCCCCCCC/C=C\CCCCCCCC(=O)[O-].CCCCCC[N+](CCCCCC)(CCCCCC)CCCCCC [tetrahexylammonium oleate] = 102.9

(a) CCCCCCCC/C=C\CCCCCCCC(=O)[O-].CCCCCCCC[N+](C)(CCCCCCCC)CCCCCCCC [methyltrioctylammonium oleate]
(b) CCCCCCCC/C=C\CCCCCCCC(=O)[O-].CCCCCCCC[N+](CCCCCCCC)(CCCCCCCC)CCCCCCCC [tetraoctylammonium oleate]
Compare reported viscosity values for a and b . Which is lower? Your answer should be the label of the entry you select.
b
(b: 94.9 mPa·s, a: 142.7 mPa·s)

====

STATED CONDITIONS: 348.15 K; 101.33 kPa; Liquid; Concentric cylinders viscometry
OBSERVED PROPERTY: viscosity (mPa·s)

(1) CCCCCCCC/C=C\CCCCCCCC(=O)[O-].CCCCCCCC[N+](C)(CCCCCCCC)CCCCCCCC [methyltrioctylammonium oleate]
(2) CCCCCCCC/C=C\CCCCCCCC(=O)[O-].CCCCCCCC[N+](CCCCCCCC)(CCCCCCCC)CCCCCCCC [tetraoctylammonium oleate]
Compare reported viscosity values for 1 and 2 . Which is lower? Your answer should be the label of the entry you select.
2

(A) CCCCCCCC/C=C\CCCCCCCC(=O)[O-].CCCCCC[N+](CCCCCC)(CCCCCC)CCCCCC [tetrahexylammonium oleate]
(B) CCCCC(CC)CCC(=O)[O-].CCCCCCCC[N+](C)(CCCCCCCC)CCCCCCCC [methyltrioctylammonium 4-ethyloctanoate]
Compare reported viscosity values for A and B . Which is lower? Your answer should be the label of the entry you select.
A

====

STATED CONDITIONS: 348.15 K; 101.33 kPa; Liquid; Vibrating tube method
OBSERVED PROPERTY: mass density (kg/m3)

CCCCCCCC/C=C\CCCCCCCC(=O)[O-].CCCCCCCC[N+](CCCCCCCC)(CCCCCCCC)CCCCCCCC [tetraoctylammonium oleate] = 845.2
CCCCC(CC)CCC(=O)[O-].CCCCCCCC[N+](C)(CCCCCCCC)CCCCCCCC [methyltrioctylammonium 4-ethyloctanoate] = 859.8
CCCCCCCC/C=C\CCCCCCCC(=O)[O-].CCCCCC[N+](CCCCCC)(CCCCCC)CCCCCC [tetrahexylammonium oleate] = 857
CCCCCCCC/C=C\CCCCCCCC(=O)[O-].CCCCCCCC[N+](C)(CCCCCCCC)CCCCCCCC [methyltrioctylammonium oleate] = 857.8
